SYSTEM_UNDER_TEST: HLA-A*24:03
MEASUREMENT_PROTOCOL: IEDB peptide-MHC binding, purified MHC/direct/fluorescence; filed as Kd, often an IC50 or EC50 that approximates it; bounds were set here for any values at or beyond the usual limits of such assays
TEST_PARAMETERS: source organism: Escherichia coli
OBSERVED_PROPERTY: Kd

Input line: Give recorded Kd with HLA-A*24:03 for the following sequence: WCRVGRGTI
Output line: 13.8 µM

###

SYSTEM_UNDER_TEST: HLA-C*15:02
MEASUREMENT_PROTOCOL: IEDB peptide-MHC binding, purified MHC/direct/fluorescence; filed as Kd, often an IC50 or EC50 that approximates it; bounds were set here for any values at or beyond the usual limits of such assays
TEST_PARAMETERS: source organism: Listeria monocytogenes EGD-e
OBSERVED_PROPERTY: pKd
Expect pKd as a plain number equal to -log10 of the molar concentration.

Input line: Entry under review: KAAETYHVF . Reported pKd?
Output line: 7.44

###

SYSTEM_UNDER_TEST: HLA-A*69:01
MEASUREMENT_PROTOCOL: IEDB peptide-MHC binding, purified MHC/direct/fluorescence; filed as Kd, often an IC50 or EC50 that approximates it; bounds were set here for any values at or beyond the usual limits of such assays
TEST_PARAMETERS: source organism: Rickettsia conorii
OBSERVED_PROPERTY: pKd
Expect pKd as a plain number equal to -log10 of the molar concentration.

Input line: Entry under review: KLNENIIRF . Reported pKd?
Output line: 5.32

###

SYSTEM_UNDER_TEST: HLA-A*33:01
MEASUREMENT_PROTOCOL: IEDB peptide-MHC binding, purified MHC/competitive/radioactivity; filed as Kd, often an IC50 or EC50 that approximates it; bounds were set here for any values at or beyond the usual limits of such assays
TEST_PARAMETERS: source organism: Vaccinia virus WR
OBSERVED_PROPERTY: log10 of Kd (log10 of the value in µM)
The common logarithm of Kd in µM is what is listed.

Some entries whose results are on file:
EIIFLKLFK; -1.00
SMLTNAISSR; 0.37
LSARNKLFKR; 0.23

Input line: Entry under review: NVTSMEELAR . Reported log10 of Kd?
Output line: -0.60

Input line: Now the sequence GSWATSSFR
Output line: -0.65

Input line: Now the sequence STCSAVTDR
Output line: 0.14

Input line: Now the sequence VAALDGTFQR
Output line: -0.17

Input line: Now the sequence KTNDINVRRR
Output line: 0.74

Input line: Now the sequence SMTIREFPR
Output line: -2.71

###

SYSTEM_UNDER_TEST: HLA-B*51:01
MEASUREMENT_PROTOCOL: IEDB peptide-MHC binding, purified MHC/direct/fluorescence; filed as Kd, often an IC50 or EC50 that approximates it; bounds were set here for any values at or beyond the usual limits of such assays
TEST_PARAMETERS: source organism: West Nile virus
OBSERVED_PROPERTY: Kd

Input line: Entry under review: HSRRSRRSL . Reported Kd?
Output line: ≥ 20 µM

###

SYSTEM_UNDER_TEST: HLA-B*53:01
MEASUREMENT_PROTOCOL: IEDB peptide-MHC binding, purified MHC/competitive/radioactivity; filed as Kd, often an IC50 or EC50 that approximates it; bounds were set here for any values at or beyond the usual limits of such assays
TEST_PARAMETERS: source organism: Dengue virus 1 Nauru/West Pac/1974
OBSERVED_PROPERTY: pKd
Expect pKd as a plain number equal to -log10 of the molar concentration.

Input line: Entry under review: MFLITENKIW . Reported pKd?
Output line: 5.05

###

// values below are reported Kd
SYSTEM_UNDER_TEST: HLA-A*69:01
MEASUREMENT_PROTOCOL: IEDB peptide-MHC binding, purified MHC/direct/fluorescence; filed as Kd, often an IC50 or EC50 that approximates it; bounds were set here for any values at or beyond the usual limits of such assays
TEST_PARAMETERS: source organism: Camelpox virus M-96

Some entries whose results are on file:
KVFDKSLLY; ≥ 20 µM
YQYIFLSFF; ≥ 20 µM

// below: Kd requested for another sequence
Input line: Entry under review: TESDAIRTL . Reported Kd?
Output line: ≥ 20 µM

###

SYSTEM_UNDER_TEST: HLA-A*02:16
MEASUREMENT_PROTOCOL: IEDB peptide-MHC binding, purified MHC/direct/fluorescence; filed as Kd, often an IC50 or EC50 that approximates it; bounds were set here for any values at or beyond the usual limits of such assays
TEST_PARAMETERS: source organism: Sudan ebolavirus
pKd: −log10 of the molar value.
OBSERVED_PROPERTY: pKd

Input line: Entry under review: YTENTSSYY . Reported pKd?
Output line: ≤ 4.70

###

SYSTEM_UNDER_TEST: HLA-B*07:02
MEASUREMENT_PROTOCOL: IEDB peptide-MHC binding, purified MHC/competitive/fluorescence; filed as Kd, often an IC50 or EC50 that approximates it; bounds were set here for any values at or beyond the usual limits of such assays
TEST_PARAMETERS: source organism: Yersinia pestis CO92
pKd: −log10 of the molar value.
OBSERVED_PROPERTY: pKd

Input line: Entry under review: QQRPDLILV . Reported pKd?
Output line: ≤ 5.30

###

SYSTEM_UNDER_TEST: HLA-A*02:19
MEASUREMENT_PROTOCOL: IEDB peptide-MHC binding, purified MHC/competitive/fluorescence; filed as Kd, often an IC50 or EC50 that approximates it; bounds were set here for any values at or beyond the usual limits of such assays
TEST_PARAMETERS: source organism: Salmonella enterica subsp. enterica serovar Choleraesuis str. SC-B67
OBSERVED_PROPERTY: pKd
Expect pKd as a plain number equal to -log10 of the molar concentration.

Input line: Entry under review: GIALAVPCV . Reported pKd?
Output line: 8.74

###

SYSTEM_UNDER_TEST: HLA-A*01:01
MEASUREMENT_PROTOCOL: IEDB peptide-MHC binding, purified MHC/competitive/radioactivity; filed as Kd, often an IC50 or EC50 that approximates it; bounds were set here for any values at or beyond the usual limits of such assays
TEST_PARAMETERS: source organism: Mammarenavirus tacaribeense
OBSERVED_PROPERTY: Kd (µM)
Report as a plain number; the unit µM is understood.

Input line: Entry under review: HYDQKLGSY . Reported Kd?
Output line: 11

###

SYSTEM_UNDER_TEST: HLA-B*40:01
MEASUREMENT_PROTOCOL: IEDB peptide-MHC binding, purified MHC/direct/fluorescence; filed as Kd, often an IC50 or EC50 that approximates it; bounds were set here for any values at or beyond the usual limits of such assays
TEST_PARAMETERS: source organism: Mycobacterium tuberculosis
OBSERVED_PROPERTY: Kd

Input line: Entry under review: VPRENATAF . Reported Kd?
Output line: ≥ 20 µM

###

SYSTEM_UNDER_TEST: HLA-B*35:01
MEASUREMENT_PROTOCOL: IEDB peptide-MHC binding, purified MHC/direct/fluorescence; filed as Kd, often an IC50 or EC50 that approximates it; bounds were set here for any values at or beyond the usual limits of such assays
TEST_PARAMETERS: source organism: Salmonella enterica subsp. enterica serovar Typhi
OBSERVED_PROPERTY: Kd (nM)
Report as a plain number; the unit nM is understood.

Input line: Entry under review: EHFYWGSVF . Reported Kd?
Output line: 427

###

SYSTEM_UNDER_TEST: HLA-A*11:01
MEASUREMENT_PROTOCOL: IEDB peptide-MHC binding, purified MHC/direct/fluorescence; filed as Kd, often an IC50 or EC50 that approximates it; bounds were set here for any values at or beyond the usual limits of such assays
TEST_PARAMETERS: source organism: Camelpox virus M-96
OBSERVED_PROPERTY: Kd (nM)
Report as a plain number; the unit nM is understood.

Input line: Entry under review: KVFDKSLLY . Reported Kd?
Output line: 4

###

// values below are reported pKd
SYSTEM_UNDER_TEST: HLA-A*29:02
MEASUREMENT_PROTOCOL: IEDB peptide-MHC binding, purified MHC/competitive/radioactivity; filed as Kd, often an IC50 or EC50 that approximates it; bounds were set here for any values at or beyond the usual limits of such assays
TEST_PARAMETERS: source organism: Triticum aestivum
Expect pKd as a plain number equal to -log10 of the molar concentration.

QYSQPQQPI; 6.39

Input line: Entry under review: QFEEIRNLAL . Reported pKd?
Output line: 5.41

###

SYSTEM_UNDER_TEST: HLA-A*33:01
MEASUREMENT_PROTOCOL: IEDB peptide-MHC binding, purified MHC/competitive/radioactivity; filed as Kd, often an IC50 or EC50 that approximates it; bounds were set here for any values at or beyond the usual limits of such assays
TEST_PARAMETERS: source organism: Dengue virus 4 Dominica/814669/1981
OBSERVED_PROPERTY: Kd

Input line: Entry under review: GYVLGVFLR . Reported Kd?
Output line: 1820 nM
